- Test system: Vesicular stomatitis Indiana virus
- runDescription: Antiviral activity against Vesicular stomatitis Indiana virus infected in human HeLa assessed as inhibition of virus-induced cytopathic effect after 2 days by MTT assay
- Type: functional, organism-based
- cond: 48 h
Kindly supply the reported EC50 values for the records listed here.

Solved cases (2 shown):
{"molecule": "C=C(CC[C@@H](C)[C@H]1C[C@@H](O)[C@@H]2[C@]1(C)CC[C@@H]1[C@@]3(C)CC[C@H](O)C[C@@H]3[C@@H](O)C[C@]12O)C(C)CO[C@@H]1OC[C@@H](O)[C@H](OS(=O)(=O)[O-])[C@H]1O[C@@H]1OC[C@@H](O)[C@H](O)[C@H]1OC.[Na+] (stereo partly drawn) [CERTONARDOSIDE C]", "EC50": "> 100 µg/mL"}
{"molecule": "C=C(CC[C@@H](C)[C@H]1C[C@@H](O)[C@@H]2[C@]1(C)CC[C@@H]1[C@@]3(C)CC[C@H](O)[C@H](O)[C@@H]3[C@@H](O)C[C@]12O)C(C)CO[C@@H]1OC[C@@H](O)[C@H](O)[C@H]1O[C@@H]1OC[C@@H](O)[C@H](O)[C@H]1OC (stereo partly drawn) [ACODONTASTEROSIDE G]", "EC50": "> 51.5 µg/mL"}

Next molecule, please.
What value of EC50 on Vesicular stomatitis Indiana virus does CO[C@H]1[C@H](O[C@H]2[C@H](O[C@@H](CC[C@@H](C)[C@H]3C[C@@H](O)[C@@H]4[C@]3(C)CC[C@@H]3[C@@]5(C)CC[C@H](O)[C@H](O)[C@@H]5[C@@H](O)C[C@]34O)C(C)C)O[C@H](CO)[C@@H]2O)OC[C@@H](OC)[C@@H]1O [CERTONARDOSIDE F] have?
> 64.8 µg/mL
